All values here come from ChEMBL document CHEMBL1129814.

Known MIC of a selection of molecules
Test system: Cryptococcus neoformans
Test: Antifungal activity against Cryptococcus neoformans (CN-17)
Assay type: functional

# example entries with known answers
CCOC(=O)c1sc(SC)cc1-c1cccnc1    50 µg/mL
CSc1cc(-c2ccc(Br)cc2)c(C(=O)O)s1    > 100 µg/mL

Attention now turns to another entry.
Data request: Endpoint output: MIC of `CCOC(=O)c1sc2cc(-c3ccc(Br)cc3)oc(=O)c2c1N` . Value?
Data returned: > 100 µg/mL

---

System: Aspergillus fumigatus
Assay: Antifungal activity against Aspergillus fumigatus (AF-27)
Format: functional
READOUT: MIC

# example entries with known answers
CCOC(=O)c1sc(SC)c(C#N)c1O    > 100 µg/mL
CCOC(=O)c1sc(SC)cc1-c1ccc(Cl)cc1    > 100 µg/mL
CCOC(=O)c1sc(SC)c(C#N)c1N    > 100 µg/mL

Attention now turns to another entry.
Data request: Item: `CCOC(=O)c1sc(SC)c(C(=O)OC)c1O` Test system: Aspergillus fumigatus Read-out: MIC Value: ?
Data returned: 25 µg/mL
